tested on: SF-295; experiment: Anticancer activity against human SF295 cells assessed as cell growth inhibition at 10 uM after 48 hrs by SRB assay; format: functional; conditions: SF-295, 48 h, read-out: GI
Where a name gives a salt, the structure may show the parent alone.
Please enter 1 where inhibition of growth at 10 µM is greater than or equal to 40%, and 0 where it is lower.

molecule=O=C1CCc2nc3ccc([N+](=O)[O-])cc3n21 label=0
molecule=O=C1c2nccnc2-c2nc3ccccc3n21 label=0
molecule="O=C1CCC2=NC3CCCCC3N12 (stereo not given)" label=0
molecule=O=C1CCc2nc3cccc(O)c3n21 label=1
molecule=Cc1cc2[nH]c3cc4ccccc4c(=O)n3c2cc1C label=0
molecule=O=C1c2nccnc2C2=Nc3ccccc3CN12 label=1
molecule="O=C1c2nccnc2C2=NC3CCCCC3N12 (stereo not given)" label=0
molecule="CO[C@@]12[C@H](COC(N)=O)C3=C(C(=O)C(C)=C(N)C3=O)N1C[C@@H]1N[C@@H]12 [MITOMYCIN]" label=1
molecule="COc1cccc2c1C(=O)c1c(O)c3c(c(O)c1C2=O)C[C@@](O)(C(=O)CO)C[C@@H]3O[C@H]1C[C@H](N)[C@H](O)[C@H](C)O1 [DOXORUBICIN HYDROCHLORIDE]" label=1
molecule=O=C1CCc2nc3ccc(Br)cc3n21 label=0

====

tested on: SF-295; test: Anticancer activity against human SF295 cells assessed as cell growth inhibition at 10 uM after 48 hrs by SRB assay; assay type: functional; conditions: SF-295, 48 h, read-out: GI
quantityKind: inhibition of growth at 10 µM (%)

molecule="O=c1c2ccccc2cc2n1C1CCCCC1N2 (configuration not stated)" quantityunit=% numericresult=0
molecule=O=C1CCc2nc3ccc(Cl)cc3n21 quantityunit=% numericresult=37
molecule=Cc1cc2nc3n(c2cc1C)C(=O)c1nccnc1-3 quantityunit=% numericresult=13
molecule=Cc1cccc2nc3n(c12)C(=O)CC3 quantityunit=% numericresult=38
molecule=Cc1cc2nc3n(c2cc1C)C(=O)CC3 quantityunit=% numericresult=54
molecule=O=c1c2ccccc2cc2[nH]c3cccc(O)c3n12 quantityunit=% numericresult=55
molecule=N#Cc1ccc2nc3n(c2c1)C(=O)CC3 quantityunit=% numericresult=52

Values compiled from ChEMBL document CHEMBL1156276.
